These data points were gathered from PubChem BioAssay AID1745844.

# Tested on: rodent lifetime carcinogenesis bioassay, tumor incidence TD50
# protocol.text: carcinogenic potency in animals, long-term in vivo studies, CPDB compilation (AID 1745844)
# experimental.conditions: rat; strain Wistar; males; in drinking water; site: lung; lesion: alveolar/bronchiolar adenoma; dosed 104 weeks; study length 104 weeks

compound	TD50
O=C1OC(O)C(C(Cl)Cl)=C1Cl (stereo unspecified)	23.4 mg/kg/day

---

# Test system: rodent lifetime carcinogenesis bioassay, tumor incidence TD50
# protocol.text: carcinogenic potency in animals, long-term in vivo studies, CPDB compilation (AID 1745844)
# experimental.conditions: monkey; strain Cynomolgus [Macaca fascicularis]; both sexes; in feed; site: pancreas; lesion: adenocarcinoma; dosed 258 weeks; study length 1208 weeks

smiles.representation	TD50
CCOC(N)=O	52.8 mg/kg/day

---

# Tested on: rodent lifetime carcinogenesis bioassay, tumor incidence TD50
# protocol.text: carcinogenic potency in animals, long-term in vivo studies, CPDB compilation (AID 1745844)
# experimental.conditions: mouse; strain Swiss albino; males; in drinking water; site: liver; lesion: angiosarcoma; dosed 120 weeks; study length 120 weeks
endpoint.name: TD50 (mg/kg/day)

smiles.representation	numeric.result
N[C@@H](CCC(=O)NNc1ccc(CO)cc1)C(=O)O	2040

---

# Test system: rodent lifetime carcinogenesis bioassay, tumor incidence TD50
# protocol.text: carcinogenic potency in animals, long-term in vivo studies, CPDB compilation (AID 1745844)
# experimental.conditions: rat; strain Not specified; females; in feed; site: any site (literature study); lesion: one or several types; types not named; dosed 104 weeks; study length 104 weeks
Activity calls are given as the source filed them. How the calls were made is not given here.

smiles.representation	TD50
ClC1=C(Cl)[C@]2(Cl)[C@@H]3[C@@H]4C[C@@H]([C@H]5O[C@@H]45)[C@@H]3[C@@]1(Cl)C2(Cl)Cl	57.2 mg/kg/day (inactive)

---

# Tested on: rodent lifetime carcinogenesis bioassay, tumor incidence TD50
# protocol.text: carcinogenic potency in animals, long-term in vivo studies, CPDB compilation (AID 1745844)
# experimental.conditions: rat; strain Fischer 344; females; by gavage; site: any site (literature study); lesion: several types; types named in the paper; dosed 104 weeks; study length 106 weeks
Calls of active or inactive are those of the source. No rule for the calls is given here.

smiles.representation	TD50
OC[P+](CO)(CO)CO	23.3 mg/kg/day (inactive)

---

# Tested on: rodent lifetime carcinogenesis bioassay, tumor incidence TD50
# protocol.text: carcinogenic potency in animals, long-term in vivo studies, CPDB compilation (AID 1745844)
# experimental.conditions: mouse; strain B6C3F1; males; in feed; site: stomach, nonglandular; lesion: squamous-cell carcinoma; dosed 104 weeks; study length 104 weeks

smiles.representation	TD50 [mg/kg/day]
O=C1c2ccccc2C(=O)N1SC(Cl)(Cl)Cl	13100

---

# System: rodent lifetime carcinogenesis bioassay, tumor incidence TD50
# protocol.text: carcinogenic potency in animals, long-term in vivo studies, CPDB compilation (AID 1745844)
# experimental.conditions: monkey; strain Cynomolgus [Macaca fascicularis]; both sexes; several routes; site: brain; lesion: astrocytoma; dosed 825 weeks; study length 980 weeks

smiles.representation	test.target	TD50, mg/kg/day
CNNCc1ccc(C(=O)NC(C)C)cc1	rodent lifetime carcinogenesis bioassay, tumor incidence TD50	6.19

---

# Test system: rodent lifetime carcinogenesis bioassay, tumor incidence TD50
# protocol.text: carcinogenic potency in animals, long-term in vivo studies, CPDB compilation (AID 1745844)
# experimental.conditions: rat; strain Fischer 344; females; in drinking water; site: liver; lesion: hepatocellular adenoma + hepatocellular carcinoma + neoplastic nodule; dosed 98 weeks; study length 104 weeks
endpoint.name: TD50

smiles.representation	test.target	result
Cc1ccc(S(=O)(=O)Oc2ccc(N=Nc3ccc(-c4ccc(N=Nc5c(O)ccc6cc(S(=O)(=O)O)cc(S(=O)(=O)O)c56)c(C)c4)cc3C)cc2)cc1	rodent lifetime carcinogenesis bioassay, tumor incidence TD50	14.2 mg/kg/day
